Test: yeast MEP2-GFP fusion level changes, TOR pathway – flow cytometry, third cherry pick, S. cerevisiae, confirmation (AID 504321);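 note: median per-cell GFP fluorescence by flow cytometry across all yeast cells; ratio of sample to DMSO median GFP so 100% equals the DMSO level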
Conditions: S. cerevisiae MEP2-GFP strain, 3 h, at 10 µM, active compounds read high
Measurement name: GFP response vs DMSO (%)

Compound	Endpoint value
Cc1ccc(NC(=O)O/N=C2\CCCCC2c2ccc([N+](=O)[O-])cc2[N+](=O)[O-])cc1 (stereo unspecified)	105
C[n+]1cccc2cccc([O-])c21	116
O=C(O)c1ccccc1-c1ccccc1C(=O)Nc1ccc(-c2nc3cc(Cl)ccc3o2)cc1	116
C=CCNc1nc(N)c([N+](=O)[O-])c(Nc2cccc(Cl)c2)n1	108
C/C(=C\C(=O)c1ccc(C)cc1)Nc1cccc(O)c1	108
Nc1[nH]c(=O)nc(Nc2ccccc2)c1N=O	108
COCCCNc1nc(N)c([N+](=O)[O-])c(Nc2cc(OC)ccc2OC)n1	110
Nc1c(C(=O)O)ccc2c1C(=O)c1ccccc1C2=O	127
CC1=CN2C(=N)/C(=C/c3ccco3)C(=O)N=C2S1	105
OCCN1CCN(c2ncnc3ccc(Br)cc23)CC1	112
Cc1cc(C)c2ccc(N)nc2c1O	108
